Here is a set of molecules with reported IC50 for UniProt O75116, compiled from the literature.

{"columns": ["molecule", "IC50"],
 "data": [
  ["Cc1cc(Nc2ccc3[nH]ncc3c2)nc(-c2ccc3cc(C(=O)Nc4ccnnc4)[nH]c3c2)n1", "0.101 µM"],
  ["[H][C@]1(c2n[nH]c(=O)c3ccccc32)C[C@]2(C[C@@H](NC(=O)c3cnc4cc(OC)ccn34)C2)C1 (stereo partly shown)", "0.0002 to 0.002 µM"],
  ["O=C(NC1CC2(C1)CC(c1n[nH]c(=O)c3ccccc13)C2)N1CCc2cccnc21 (stereo not shown)", "0.0151 to 0.1 µM"],
  ["COc1cc(C(=O)NCc2cccc(C(=O)NC3(C)CC3)c2)ccc1-c1cn[nH]c1", "0.00114 µM"],
  ["O=C(c1cc2n(c1)CCN(c1nccc(Nc3ccc(-c4cn[nH]c4)cc3)n1)C2)N1CC(F)(F)C1", "> 4.5 µM"]
]}

For the 2 molecules below, give their IC50 values.
1. [H][C@]1(c2n[nH]c(=O)c3ccccc32)C[C@]2(C[C@@H](NC(=O)c3cnc4ccccn34)C2)C1 (stereo partly shown)
2. COc1cc(N2CCC3(CCN(C(=O)c4ccc(-n5ccncc5=O)cc4)CC3)C2=O)ccc1-c1cn[nH]c1

Outgoing:
1: 0.0051 to 0.015 µM; 2: 0.012 µM

###

pIC50: −log10 of the molar value.
Here is a set of compounds with reported pIC50 for UniProtKB O75116, compiled from the literature.

Solved cases below.
{"columns": ["compound", "pIC50"],
 "data": [
  ["O=C1N(c2ccc(-c3cn[nH]c3)cc2)CC2(CCNCC2)N1Cc1ccccc1F", "7.52 to 8.52"],
  ["COc1cccc(CN2CCN(c3cc(OC)c(-c4cn[nH]c4)cn3)C2=O)c1", "7.70 to 8.68"],
  ["O=C(Cc1ccccn1)Nc1cccc(-n2nc(Nc3ccc4[nH]ncc4c3)c3ccccc32)c1", "5.52 to 6.52"],
  ["COC(=O)c1cccc(C(=O)Nc2cccc(CN3CCC(Nc4cccc5cnccc45)C3)c2)c1 (centres unmarked)", "> 7.00"],
  ["COCc1ccc2c(c1)CN(c1nccc(Nc3ccc4[nH]ncc4c3)n1)C2", 7.00],
  ["COc1cc(-c2cn[nH]c2)ccc1C(=O)NC(C)c1c(F)cccc1F (centres unmarked)", 5.92],
  ["O=C(c1cc2ccc(-c3nccc(Nc4ccc(-c5cn[nH]c5)cc4)n3)cc2[nH]1)N1CCOCC1", 6.59]
]}

Consider the additional compound presented here.
Incoming: Entry [H][C@]1(c2n[nH]c(=O)c3ccccc32)C[C@]2(C[C@@H](NC(=O)c3cc4cccc(Cl)c4n3C)C2)C1 (some centres unmarked) : reported pIC50 = ?
Outgoing: 8.30 to 8.70

###

Here is a set of molecules with reported IC50 for ROCK2 (Homo sapiens, UniProt O75116), compiled from the literature.
Mark T only when IC50 stays strictly below 50 nM. Values equal to the cut-off are F.

Field: example entries. Status: answers known.
{"columns": ["molecule", "group"],
 "data": [
  ["CN1CCN(c2ccc3c(C(=O)N[C@H]4C[C@]5(C4)C[C@H](Oc4nn(C)cc4C(N)=O)C5)cnn3c2)CC1 (stereo partly drawn)", "F"],
  ["O=C(c1cc2ccc(-c3nc(Nc4ccc5[nH]ncc5c4)c4sccc4n3)cc2[nH]1)N1CCC2(CCNCC2)CC1", "T"],
  ["O=C(NCc1ccccc1)c1cccc([C@@H](CO)NC(=O)c2ccc(-c3ccncc3)cc2)c1", "T"],
  ["C[C@@H](NC(=O)c1ccc(-c2cn[nH]c2)c(OCC(C)(C)O)c1)c1ccccc1", "F"]
]}

Incoming: Hi there! Is IC50 for [H][C@]1(Oc2ncccc2C(N)=O)C[C@]2(C[C@@H](Nc3nccc(-c4cccnc4)n3)C2)C1 (stereo partly drawn) below 50 nM, do you know?
Outgoing: F

Incoming: Repeat with O=C(c1cc2ccc(-c3nccc(Nc4ccc(-c5cn[nH]c5)cc4)n3)cc2[nH]1)N1CCC2(CCNCC2)CC1
Outgoing: F

Incoming: Repeat with O=C(Nc1ccc2c(c1)OCc1cnccc1-2)Nc1ccccc1Cl
Outgoing: F

Incoming: Repeat with COc1cc(N2CCC3(CCN(S(=O)(=O)c4ccc5ncsc5c4)CC3)C2=O)ccc1-c1cn[nH]c1
Outgoing: T

Incoming: Repeat with NC(=O)c1cccnc1O[C@H]1C[C@]2(C1)C[C@H](N1C(=O)NC(CCOC(F)(F)F)C1=O)C2 (single isomer, unassigned)
Outgoing: F

Incoming: Repeat with COCCNC(=O)COc1cccc(-c2nc(Nc3ccc4[nH]ncc4c3)c3ccccc3n2)c1
Outgoing: F

Incoming: Repeat with COc1cccc(C(CN)NC(=O)c2cc(-c3ccc4[nH]nc(C)c4c3)ccc2OC)c1 (stereo not drawn)
Outgoing: T

Incoming: Repeat with CC(C)(O)COc1ccc2nc(NC(=O)Cc3ccc(Oc4ncccc4C(N)=O)c(F)c3)n(CC3CC3)c2c1
Outgoing: T

Incoming: Repeat with O=C(NC1CCOC1)c1cc2ccc(-c3nccc(Nc4ccc5[nH]ncc5c4)n3)cc2s1 (stereo not drawn)
Outgoing: T

Incoming: Repeat with Cc1cc(C(=O)N[C@H](CC(=O)O)c2ccccc2)ccc1-c1cn[nH]c1
Outgoing: T

Incoming: Repeat with O=C(c1cc2c(n1C(F)F)CN(c1ncnc(Nc3ccc(-c4cn[nH]c4)cc3)n1)CC2)N1CC(F)(F)C1
Outgoing: F

Incoming: Repeat with CN1CCN(c2ccc(C(=O)N3CCC4(CC3)CCN(c3ccc(-c5ccncc5F)cc3)C4=O)cc2)CC1
Outgoing: T

Incoming: Repeat with COc1cc(N2CCC3(CCN(C(=O)c4cccc(C(F)(F)F)c4)CC3)C2=O)ccc1-c1cn[nH]c1
Outgoing: F
